For each entry below, report its SARS-CoV-2 infection rate value.
Tested on: Vero E6 infected with SARS-CoV-2
Assay: SARS-CoV-2 infection rate relative to infected DMSO; higher = more infection, active = 60 or less
Settings: 24 h
Numbers only, in %.

These recorded examples may help you get a feel for the data.
INSERT INTO results (compound, units_symbol, measured_value) VALUES
  ('CC#CCC(C)[C@H](O)/C=C/[C@@H]1[C@H]2C/C(=C/CCCC(=O)O)C[C@H]2C[C@H]1O (stereo not given in full) [iloprost] (10 µM)', '%', 108),
  ('O=C(O)c1ccccc1Nc1cccc(OCc2ccc3ccccc3n2)c1 (10 µM)', '%', 95.5),
  ('CCNC1=Nc2ccc(Cl)cc2C(C)(c2ccccc2)O1 (stereo not given) [etifoxine] (10 µM)', '%', 106),
  ('N[C@@H]1c2cccnc2[C@H](OC(=O)N2CCC(n3c(=O)[nH]c4ncccc43)CC2)CC[C@H]1c1cccc(F)c1F [rimegepant] (10 µM)', '%', 96.5),
  ('Clc1cccc(Cl)c1NC1=NCCN1 [clonidine] (10 µM)', '%', 100);

Batch: SARS-CoV-2 infection rate for all items listed.
1. N[C@@H](Cc1c[nH]c2ccccc12)C(=O)O [tryptophan] (10 µM)
2. O=C(O)CCNc1cc(N2CCc3ccccc3CC2)nc(-c2cccnc2)n1 (10 µM)
3. CC(C)(O)CC(=O)NCCn1ccc2ncnc(Nc3ccc(Oc4cccc(C(F)(F)F)c4)c(Cl)c3)c21 (10 µM)
4. Nc1cc2c3ccccc3ccc2c2ccccc12 [6-aminochrysene] (10 µM)
5. CCC[C@H](NC(=O)[C@@H]1[C@H]2CCC[C@H]2CN1C(=O)[C@@H](NC(=O)[C@@H](NC(=O)c1cnccn1)C1CCCCC1)C(C)(C)C)C(=O)C(=O)NC1CC1 [telaprevir] (10 µM)
6. NCCCC[C@H](NC(=O)[C@@H]1CCCN1C(=O)[C@@H]1CSSC[C@H](N)C(=O)N[C@@H](Cc2ccc(O)cc2)C(=O)N[C@@H](Cc2ccccc2)C(=O)N[C@@H](CCC(N)=O)C(=O)N[C@@H](CC(N)=O)C(=O)N1)C(=O)NCC(N)=O [lypressin] (10 µM)
7. C[C@H](N)C(=O)O [L-alanine] (10 µM)
8. CCOC(=O)c1c(CSc2ccccc2)n(C)c2cc(Br)c(O)c(CN(C)C)c12 [arbidol] (10 µM)

Result:
1: 100; 2: 108; 3: 114; 4: 101; 5: 106; 6: 91; 7: 111; 8: 87.5

Batch: SARS-CoV-2 infection rate for all items listed.
1. COc1ccccc1OC(=O)C(C)c1ccc(CC(C)C)cc1 (stereo not given) [metoxibutropate] (10 µM)
2. COc1[nH]c2ccc(F)cc2c1C(=O)OCC1CCN(CCNS(C)(=O)=O)CC1 (10 µM)

Result:
[101, 106]
